- testTarget: PRMT5/MEP50 complex (Homo sapiens, UniProt O14744)
- Sequence (O14744 whole entry, the tested form may be a part): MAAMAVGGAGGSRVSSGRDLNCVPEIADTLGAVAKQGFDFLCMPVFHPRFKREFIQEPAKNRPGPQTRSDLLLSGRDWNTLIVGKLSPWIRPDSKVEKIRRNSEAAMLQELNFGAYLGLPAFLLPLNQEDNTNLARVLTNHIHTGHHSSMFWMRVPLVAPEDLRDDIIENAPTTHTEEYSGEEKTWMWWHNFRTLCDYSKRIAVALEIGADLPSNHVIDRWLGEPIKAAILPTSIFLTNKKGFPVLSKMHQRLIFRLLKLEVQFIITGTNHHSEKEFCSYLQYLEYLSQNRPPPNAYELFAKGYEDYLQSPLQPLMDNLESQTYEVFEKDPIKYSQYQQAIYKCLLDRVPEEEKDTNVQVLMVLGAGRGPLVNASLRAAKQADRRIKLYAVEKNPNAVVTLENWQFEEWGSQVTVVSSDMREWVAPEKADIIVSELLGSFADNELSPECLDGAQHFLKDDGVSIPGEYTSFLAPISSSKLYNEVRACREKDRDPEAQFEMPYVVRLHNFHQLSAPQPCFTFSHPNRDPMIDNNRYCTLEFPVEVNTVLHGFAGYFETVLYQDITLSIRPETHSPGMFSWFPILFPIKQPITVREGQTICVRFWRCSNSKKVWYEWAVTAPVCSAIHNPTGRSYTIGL
- Sequence (Q9BQA1 whole entry, further chain, the tested form may be a part): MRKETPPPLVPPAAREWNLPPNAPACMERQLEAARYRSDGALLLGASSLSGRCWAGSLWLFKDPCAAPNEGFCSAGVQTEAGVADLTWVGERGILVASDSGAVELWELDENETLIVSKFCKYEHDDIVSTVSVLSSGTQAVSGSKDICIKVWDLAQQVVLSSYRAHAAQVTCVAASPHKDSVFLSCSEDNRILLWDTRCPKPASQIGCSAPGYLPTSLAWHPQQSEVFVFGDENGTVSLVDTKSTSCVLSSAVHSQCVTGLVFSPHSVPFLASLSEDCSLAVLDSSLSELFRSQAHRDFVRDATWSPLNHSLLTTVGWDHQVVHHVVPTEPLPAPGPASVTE
- testDescription: Inhibition of recombinant human fetal brain FLAG-tagged PRMT5/full length human testis 6His-tagged MEP50 expressed in baculovirus infected insect Sf9 cells using human histone H4 (1 to 15 residues) as substrate preincubated for 30 mins followed by [3H]-SAM addition
This section presents molecules with their documented IC50 values.

Please review the entries below; each comes with its answer.
- molecule: "COc1ccc(Cl)c(-c2cccc(OCC(O)CN3CCc4ccccc4C3)c2)c1 (centres undefined)"
  observationType: "IC50"
  reported: "1000 to 10000 nM"
- molecule: "CC(=O)N1CCC(n2cnc3ccc(-c4cccc(OCC(O)CN5CCc6ccccc6C5)c4)cc32)CC1 (centres undefined)"
  observationType: "IC50"
  reported: "101 to 1000 nM"
- molecule: "OC(COC1CCCC1)CN1CCc2ccccc2C1 (centres undefined)"
  observationType: "IC50"
  reported: "1000 to 10000 nM"
- molecule: "Cn1cc2ccc(-c3cccc(OCC(O)CN4CCc5ccccc5C4)c3)cc2n1 (centres undefined)"
  observationType: "IC50"
  reported: "101 to 1000 nM"
- molecule: "Cn1ccnc1-c1ccccc1OCC(=O)NCC(O)CN1CCc2ccccc2C1 (centres undefined)"
  observationType: "IC50"
  reported: "101 to 1000 nM"
- molecule: "CN1CCCc2c(OCC(=O)NCC(O)CN3CCc4ccccc4C3)cccc21 (centres undefined)"
  observationType: "IC50"
  reported: "101 to 1000 nM"

Form field - read-out: IC50; system: PRMT5/MEP50 complex (Homo sapiens, UniProt O14744); submitted item: O=C(COc1cccc2c1CCCN2)NCC(O)CN1CCc2ccccc2C1 (centres undefined) 101 to 1000 nM

Now consider CC1c2ccccc2CCN1CC(O)COc1cccc(-c2ccc3ncn(C)c3c2)c1 (centres undefined) and answer again. 101 to 1000 nM

Now consider OC(COc1cccc(-c2ccc3ncoc3c2)c1)CN1CCc2ccccc2C1 (centres undefined) and answer again. 101 to 1000 nM
